# target: 11β-hsd-1 enzyme (Homo sapiens)
# Sequence (P28845 whole entry, species assumed): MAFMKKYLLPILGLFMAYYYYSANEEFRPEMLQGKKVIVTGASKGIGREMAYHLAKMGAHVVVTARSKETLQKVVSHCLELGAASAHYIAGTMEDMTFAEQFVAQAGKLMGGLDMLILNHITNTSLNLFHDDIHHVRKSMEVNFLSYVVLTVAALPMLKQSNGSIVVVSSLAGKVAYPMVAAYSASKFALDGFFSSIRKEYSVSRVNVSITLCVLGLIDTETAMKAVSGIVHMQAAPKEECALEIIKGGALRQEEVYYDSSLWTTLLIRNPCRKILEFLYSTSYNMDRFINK
# experiment_summary: biochemical
# Protocol: The 11β-hsd-1 assay was performed in a 100 mM Triethanolamine buffer pH 8.0, containing 200 mM NaCl, 0.02% n-dodecyl β-D-maltoside, 5% glycerol, 5 mM β-mercaptoethanol. […] The initial reaction velocities were measured by stopping the reaction at 60 min and by measuring the area of product formation in the absence and the presence of various concentrations of inhibitors. […]
Can you tell me pKi for the items I'm about to list?
// pKi is dimensionless: -log10 of concentration (M)

pKi in this record for CS(=O)(=O)c1ccc2c(c1)CCN(S(=O)(=O)Nc1ccc3ccccc3n1)CC2 [Example 12] : 8.07

Record Cc1cccc(NS(=O)(=O)N2CCCC(COCC3CC3)CC2)n1 (stereo not drawn) [Example 86] . Reported pKi: 7.01

Item: CCc1cccc(NS(=O)(=O)N2CCCCCCC2)n1 [Example 193] | pKi: 8.11

The reported pKi of the compound CCc1cccc(NS(=O)(=O)N2CCCN(c3ncccc3C#N)CC2)n1 [Example 187] was 6.80

Just so you know, measured pKi for N#Cc1ccc(C2CCN(S(=O)(=O)Nc3ccc4ccccc4n3)CC2)nc1 [Example 38] came out at 7.51

// recorded pKi for CCOC(=O)Cc1cccc(NS(=O)(=O)N2CCc3ccccc3CC2)n1 [Example 15] : 8.70

pKi recorded for this compound, CCc1cccc(NS(=O)(=O)N2CCC(C(F)(F)F)CC2)n1 [Example 106] , is 8.15

Field pKi (entry Cc1cc(C)nc(NS(=O)(=O)N2CCN(c3ccc(C(F)(F)F)cn3)CC2)c1 [Example 1] ) reads 8.39

// recorded pKi for O=C(c1ccc(N2CCN(S(=O)(=O)Nc3ccc4ccccc4n3)CC2)nc1)N1CCOCC1 [Example 178] : 6.72

Value of pKi reported for the compound CCc1cccc(NS(=O)(=O)N2CCCCC2c2ccc(F)cc2)n1 (stereo not drawn) [Example 105] is 8.09

The compound CCc1cccc(NS(=O)(=O)N2CCCN(c3ccc(C#N)cn3)CC2)n1 [Example 42] showed pKi equal to 7.77

Entry Cc1cccc(NS(=O)(=O)N2CCN(c3ncccn3)CC2)n1 [Example 125] — recorded pKi = 7.55

Field pKi (entry CCc1cccc(NS(=O)(=O)N2CCC(c3ccc(C(=O)NC4CCCC4)cc3)CC2)n1 [Example 74] ) reads 8.02

Record CC(C)c1cccc(NS(=O)(=O)N2CCC(c3ccc(C#N)cn3)CC2)n1 [Example 34] , field pKi: 7.59

Lab note: measured pKi of Cc1cccc(NS(=O)(=O)N2CC=C(c3ccc(C#N)cc3)CC2)n1 [Example 26] was 8.80

Quick note, pKi for CCc1cccc(NS(=O)(=O)N2CCC(c3cccc(O)c3)CC2)n1 [Example 122] landed at 7.96

Consider COc1cccc(N2CCN(S(=O)(=O)Nc3ccc4ccccc4n3)CC2)n1 [Example 165] . Its measured pKi is 8.85

Documented pKi of CCc1cccc(NS(=O)(=O)N2CCCC(F)(F)C2)n1 [Example 101] : 7.47

---

# target: 11β-hsd-1 enzyme (Homo sapiens)
# experiment_summary: biochemical
Provide the recorded pKi for the entries that follow.
As a rule, pKi stands for the negative log10 of the concentration, concentration in M.

Short answer for Cc1cccc(NS(=O)(=O)N2CCCN(c3nc4cc(Cl)ccc4o3)CC2)n1 : pKi was 8.09

Sure, the documented pKi for Cc1ccc(N2CCN(S(=O)(=O)Nc3cccc(C)n3)CC2=O)cc1 is 6.60

Sample Cc1cccc(NS(=O)(=O)N2CCN(c3ccc(C(F)(F)F)cn3)CC2)n1 ; pKi observed: 8.68

// pKi lookup, compound = CCc1cccc(NS(=O)(=O)N2CCC(C3CCN(C(=O)c4ccc(F)cc4)CC3)CC2)n1 , result: 7.22

Lookup result for CCc1cccc(NS(=O)(=O)N2CCN(c3ncccn3)CC2)n1 ; measured pKi: 6.92

Consider CCCC1CCN(S(=O)(=O)Nc2cccc(CC)n2)CC1 . Its measured pKi is 9.00

Item: CCc1cccc(NS(=O)(=O)N2CCCN(Cc3ccc(F)cc3)CC2)n1 | pKi: 7.70

Kindly note the recorded pKi for CCc1cccc(NS(=O)(=O)N2CCCN(c3nc4cc(Cl)ccc4o3)CC2)n1 , which is 7.64

O=S(=O)(Nc1ccc2ccccc2n1)N1CCCC(c2ccccc2)CC1 (stereo not drawn) yielded pKi of 8.20
